test: yeast display, Sf9 membrane polyspecificity reagent, FACS + sequencing; frameworks hold sequencing errors
metric-name: polyreactivity (PSR sort gate)

INSERT INTO measurements (primary_sequence, assay_result) VALUES
  ('QVQLVESGGGLVQAGGSLRLSCAASGLIFWKYAMGWYREAPGKERELVAAITSGGSTNYADSVKGRFTISRDNAKNPVYLQMNSLKPEDTAVYYCNARSWFEYYWGQGTQVTVSS', 'high polyreactivity'),
  ('QVQLVESGGGLVQEGGSLRLSCAASGSTFSRYAMGWYRQAPGKERELVAAISSRGGSTYYADSVKGRFTISRDNAKNNVYLQMNSLKPEDTAVYYCNALTSYQNHVYPYDYWGQGTQVTVSS', 'high polyreactivity'),
  ('QDQHVESGGGLVQAGCSLRLSCAASGSIFSWNAMGWYRQAPGKERELVAAIRWDTGSTYYADSVKVRFTISRDKAKNTVYLQMNRLKPEDTAVYYCAADLFDCQLIDGFAVVTYGYWGQGTQVTVSS', 'low polyreactivity'),
  ('QVQLVESGGGLVQAGGSLRLSCAASGSIFVHNDMGGYRQAPGTERELVATIDSAGGTYYADSVKGRFTISRDNAKYTVYLQMNSLKPEDTAVYYCAAYGPYVLSIYDYWGQGTQVTVSS', 'low polyreactivity'),
  ('QVQLVESGGGLVQAGCSLRCSCPDSGGIFTRYVMGWYRPAPGKEREMVAAISSRGGSTYYADSVKGRFTISRDNAKNTVYLQMNSLKPEDTAVYYSAAEQGRTSYRYYYWGQGTQVTVSS', 'high polyreactivity'),
  ('QVQLVESGGGLVQAGGSLRLSCAASGLSFYPNGMGWYREAPGKERELVAAITYSDGSTYYADSVKGRFSISRDNAKNTVYLQMNSLKPEDTAVYYGNRVTRWTYNYWGQGTQVTVSS', 'high polyreactivity'),
  ('QVQLVESGGGLVQAGGSLRLSCAASGLIFRWYAMGWYRQAPGTERELVAAISRRGGTTNYADSVKGRFTISRDNAKNTVYLQMNSLKPEDTAVYYCAADYQSVGGAEYDYWGQCTQVTVSS', 'high polyreactivity'),
  ('QVQLVDSGGGLVQAGGSLRLSCAASGRIFELYAMGWNTQATGKDRELVAVITNGGSTYYADSVKGRFTISRDNAKNTVYLQLNSLKPEDTAVYYCNGRRGYNRVGGSYGYWGQGTQVTVSS', 'low polyreactivity'),
  ('QVQLVESGGGLVQAGGSLRLSCAASGSTLVLNAMGWYRQAPGKERELVAAITISGDTTYYADSVKGRFTISRDNAKNTVYLQMNSLKPEDTAVYYCAVDSFLVYSAVRPYDYWGQGTQVTVSS', 'low polyreactivity'),
  ('QVQLVESGGGLVQAGGSLRLSCAASGSTFVNNAMGWYRQAPGKERELGASITVGGSTYYADSVKGRFTISRDNAKNTVYLQMNSLKPEDTAVYYCAAADYRFWSRYDYWGQGTQVTVSS', 'low polyreactivity'),
  ('QVQLVESGGGLVQAGGSLRLSCAASGLTFRLNAMGWYRQAPGKERELVAAITAIGDRTYYADSVKGRFTISRDNAKNTVYLQMKSLKQEDTAVYYCNVTPRRAQVRIGNYWGQGTQVTVSS', 'high polyreactivity');
